# assay-system: Ecdysone receptor (Bombyx mori, UniProt P49881)
# Sequence (P49881 whole entry): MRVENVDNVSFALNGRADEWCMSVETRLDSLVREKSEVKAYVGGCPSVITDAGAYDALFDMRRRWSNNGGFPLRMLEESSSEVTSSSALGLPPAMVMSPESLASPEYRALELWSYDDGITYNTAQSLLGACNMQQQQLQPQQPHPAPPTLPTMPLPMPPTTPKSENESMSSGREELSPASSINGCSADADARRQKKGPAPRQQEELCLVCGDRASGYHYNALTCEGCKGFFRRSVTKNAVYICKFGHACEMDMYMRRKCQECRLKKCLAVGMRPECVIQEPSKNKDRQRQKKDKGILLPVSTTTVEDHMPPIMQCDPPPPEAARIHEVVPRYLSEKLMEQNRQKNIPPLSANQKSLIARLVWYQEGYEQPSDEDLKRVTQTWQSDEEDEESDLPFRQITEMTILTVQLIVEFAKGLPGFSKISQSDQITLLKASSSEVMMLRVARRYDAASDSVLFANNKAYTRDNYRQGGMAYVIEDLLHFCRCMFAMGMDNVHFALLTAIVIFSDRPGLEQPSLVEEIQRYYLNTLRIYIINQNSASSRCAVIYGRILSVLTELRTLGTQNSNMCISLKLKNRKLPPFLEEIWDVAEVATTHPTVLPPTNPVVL
# protocol-description: Agonist activity at ecdysone receptor in Bombyx mori Bm5 cells after 24 hr by luciferase reporter gene assay
# Type: cell-based
# conditions: read-out: EC50
reported-endpoint: EC50 (µM)
API: value field is a number in µM; no unit string.

Query :: For CC1CC(Nc2ccc(F)cc2)c2cc(F)ccc2N1C(=O)c1ccc(Cl)cc1 (stereo unspecified) , what is its reported EC50?
Result :: 55
